Values from paper PMC7984888

viability at 48 h, 32 µM listing for selected compounds.
TEST SUMMARY: WST-1 cell viability
Format: cell-based
RECORDED CONDITIONS: human, uninfected HeLa cells, WST-1, relative to DMSO control as 100%
Express the result in % but write the number alone.

Q) Identify the reported viability at 48 h, 32 µM for the following entry. O=[N+]([O-])c1ccc(C2CC3C(c4ccccc4Br)N(c4ccccc4)OC3N2c2ccccc2)cc1 (centres unmarked)
A) 104

Q) Quickly give me recorded viability at 48 h, 32 µM for Fc1ccc(N2C(C3CCCCC3)CC3C(c4ccccc4Br)N(c4ccccc4)OC32)cc1 (centres unmarked)
A) 96.5

---

Catalogue of compounds with associated viability at 48 h, 32 µM
TEST SUMMARY: WST-1 cell viability
Format: cell-based
RECORDED CONDITIONS: human, uninfected HeLa cells, WST-1, relative to DMSO control as 100%

Q) Write down viability at 48 h, 32 µM measured for item Clc1ccc(N2C(c3ccccc3)CC3C(c4ccccc4)N(c4ccccc4)OC32)cc1 (stereo not shown)
A) 98.3%

Q) Could you please provide reported viability at 48 h, 32 µM for COc1ccc(N2C(c3ccccc3)CC3C(c4cccc(Br)c4)N(c4ccccc4)OC32)cc1 (stereo not shown) ? Thanks!
A) 95.2%

Q) Respond only with viability at 48 h, 32 µM recorded for Brc1ccccc1C1c2ccccc3cccc2N2C(c4ccccc4)CC3C2ON1c1ccccc1 (stereo not shown)
A) 102%

Q) Let me know recorded viability at 48 h, 32 µM for c1ccc(C2C3CC(c4ccccc4)N(c4ccccc4)C3ON2c2ccccc2)cc1 (stereo not shown) , thanks.
A) 101%

Q) Could you please provide reported viability at 48 h, 32 µM for Cc1ccc(C2CC3C(c4ccccc4Br)N(c4ccccc4)OC3N2c2ccccc2)cc1 (stereo not shown) ? Thanks!
A) 99.7%

Q) Query viability at 48 h, 32 µM for Fc1ccc(N2C(c3cccc4ccccc34)CC3C(c4ccccc4Br)N(c4ccccc4)OC32)cc1 (stereo not shown)
A) 106%

Q) Let me know recorded viability at 48 h, 32 µM for Cc1ccc(C2CC3C(c4ccccc4)N(c4ccccc4)OC3N2c2ccc(C)cc2)cc1 (stereo not shown) , thanks.
A) 96.5%

---

TEST SUMMARY: WST-1 cell viability
Type: cell-based
RECORDED CONDITIONS: human, uninfected HeLa cells, WST-1, relative to DMSO control as 100%
Below, each of the compounds is paired with its reported viability at 48 h, 32 µM value.
Only the number, expressed in %, is required.

Worked cases, answers included:
COMPOUND: Brc1ccccc1C1C2CC(/C=C/c3ccccc3)N(c3ccccc3)C2ON1c1ccccc1 (stereo not drawn) [Compound 14]
viability at 48 h, 32 µM (%): 98

COMPOUND: Brc1ccccc1C1C2CC(c3ccccc3Br)N(c3ccccc3)C2ON1c1ccccc1 (stereo not drawn) [Compound 17]
viability at 48 h, 32 µM (%): 114

COMPOUND: Brc1ccc(C2C3CC(c4ccccc4)N(c4ccccc4)C3ON2c2ccccc2)cc1 (stereo not drawn) [Compound 3]
viability at 48 h, 32 µM (%): 99.9

COMPOUND: COc1ccc(N2C(c3ccccc3)CC3C(c4ccccc4Br)N(c4ccccc4)OC32)cc1 (stereo not drawn) [Compound 4]
viability at 48 h, 32 µM (%): 97.5

Now look at this one.
Q) Answer with reported viability at 48 h, 32 µM of O=[N+]([O-])c1ccc(C2CC3C(c4ccccc4Cl)N(c4ccccc4)OC3N2c2ccccc2)cc1 (stereo not drawn) [Compound 15]
A) 104
